Reference for the values: the kinase profiling compilation of Christmann-Franck et al. (2016)

Biological target: WNK2 (human)
Assay: radiometric filter-binding kinase assay, Kinase HotSpot
Details: compound 0.5 µM; ATP 10 µM
Measured endpoint: residual activity (%)
Entry rule: numbers only, all in %.

Exam item: Please look up its residual activity: `CC(C)n1cnc2c(Nc3cccc(Cl)c3)nc(NCCO)nc21`
Marked response: 93.6

Exam item: Please look up its residual activity: `CCN1/C(=C/C(C)=O)Sc2ccc(OC)cc21`
Marked response: 91.1

Exam item: Please look up its residual activity: `O=C1Nc2ccccc2/C1=C\c1c(Cl)[nH]c2ccccc12`
Marked response: 93.4

----------
Target: CAMK1G (human) (UniProt Q96NX5)
Sequence (Q96NX5 whole entry, looked up): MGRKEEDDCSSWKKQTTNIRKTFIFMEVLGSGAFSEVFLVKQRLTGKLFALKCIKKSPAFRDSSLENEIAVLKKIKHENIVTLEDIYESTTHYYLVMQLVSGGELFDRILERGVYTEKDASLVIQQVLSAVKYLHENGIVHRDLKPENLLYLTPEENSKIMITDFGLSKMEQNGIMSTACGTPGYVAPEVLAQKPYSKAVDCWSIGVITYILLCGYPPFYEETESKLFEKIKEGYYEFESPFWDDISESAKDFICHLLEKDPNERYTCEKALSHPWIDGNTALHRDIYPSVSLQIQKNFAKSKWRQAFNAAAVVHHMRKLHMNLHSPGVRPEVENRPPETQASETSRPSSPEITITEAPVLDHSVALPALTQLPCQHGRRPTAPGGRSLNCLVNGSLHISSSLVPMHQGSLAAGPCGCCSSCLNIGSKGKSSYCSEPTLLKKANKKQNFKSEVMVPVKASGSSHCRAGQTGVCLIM
Assay: radiometric filter-binding kinase assay, Kinase HotSpot
Settings: compound 0.5 µM; ATP 10 µM
Please provide measured residual activity for the entries that follow.
Entry rule: numbers only, all in %.

Exam item: Please look up its residual activity: `Nc1nc(Nc2ccc(S(N)(=O)=O)cc2)nn1C(=S)Nc1c(F)cccc1F`
Marked response: 95.9

Exam item: Please look up its residual activity: `NC(=O)c1ccc(N(C(N)=O)c2c(F)cccc2F)nc1-c1ccc(F)cc1F`
Marked response: 108

Exam item: Please look up its residual activity: `Nc1nc(Nc2ccc(S(N)(=O)=O)cc2)nn1C(=O)c1c(F)cccc1F`
Marked response: 101

Exam item: Please look up its residual activity: CS(=O)c1ccc(-c2nc(-c3ccc(F)cc3)c(-c3ccncc3)[nH]2)cc1 (stereo not given)
Marked response: 99.3

Exam item: Please look up its residual activity: `COc1cc2nccc(Oc3ccc(NC(=S)NC(=O)c4ccccc4C)cc3)c2cc1OC`
Marked response: 99.5
